Data credit: paper PMC9120017

- TARGET UNDER TEST: mouse TMEM16A mutant T518A (Mus musculus, UniProt Q8BHY3, T518A)
- Construct: expressed in transfected cells; host or cells: HEK293T
- Sequence (Q8BHY3 whole entry T518A): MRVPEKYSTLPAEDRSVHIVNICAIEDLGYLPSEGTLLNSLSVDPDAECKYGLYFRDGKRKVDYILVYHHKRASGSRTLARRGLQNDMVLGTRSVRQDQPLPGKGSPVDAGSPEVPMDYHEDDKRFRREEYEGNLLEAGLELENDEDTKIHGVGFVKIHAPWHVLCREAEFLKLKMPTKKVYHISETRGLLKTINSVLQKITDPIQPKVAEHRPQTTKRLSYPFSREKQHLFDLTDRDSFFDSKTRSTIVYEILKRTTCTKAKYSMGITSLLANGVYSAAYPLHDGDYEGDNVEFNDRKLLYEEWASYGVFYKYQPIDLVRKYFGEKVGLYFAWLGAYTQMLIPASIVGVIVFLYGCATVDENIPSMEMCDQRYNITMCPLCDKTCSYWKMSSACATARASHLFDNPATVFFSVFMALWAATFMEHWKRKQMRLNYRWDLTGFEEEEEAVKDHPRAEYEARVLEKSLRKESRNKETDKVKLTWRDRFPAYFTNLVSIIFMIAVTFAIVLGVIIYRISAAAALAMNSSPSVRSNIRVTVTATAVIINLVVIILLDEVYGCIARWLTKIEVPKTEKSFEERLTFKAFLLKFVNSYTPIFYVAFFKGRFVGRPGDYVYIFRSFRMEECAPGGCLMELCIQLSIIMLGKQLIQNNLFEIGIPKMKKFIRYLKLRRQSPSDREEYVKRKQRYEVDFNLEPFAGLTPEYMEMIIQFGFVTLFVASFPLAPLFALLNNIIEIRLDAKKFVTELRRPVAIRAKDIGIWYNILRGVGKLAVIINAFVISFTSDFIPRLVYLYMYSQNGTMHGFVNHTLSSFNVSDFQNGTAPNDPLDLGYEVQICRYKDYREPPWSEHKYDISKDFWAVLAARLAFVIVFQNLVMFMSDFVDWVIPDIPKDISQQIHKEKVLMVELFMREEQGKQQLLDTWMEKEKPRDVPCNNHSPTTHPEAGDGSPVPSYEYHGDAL
- METHOD DESCRIPTION: Inside-out patch recording of 1PBC block, mutant T518A
- Assay type: cell-based
- CONDITION INFO: 0 mV; 2 µM Ca2+
pIC50: −log10 of the molar value.
OUTCOME MEASURE: pIC50

> print(dat)
                                   compound  outcome.measure  assay.result
1  N#Cc1c(C(F)(F)F)cc(O)n2c1nc1ccccc12 [1PBC]            pIC50          5.25
